Recorded values, source PubChem BioAssay (NCI).

System: LOX IMVI melanoma
PROCEDURE TEXT: NCI-60 one-dose screen, 48 h (100 = growth as untreated, 0 = no growth, -100 = all killed)
CONDITION LABEL: 10 µM unless noted
Experimental: Growth inhibition of the LOX IMVI human tumor cell line is measured as a screen for anti-cancer activity. Cells are grown in 96 well plates and exposed to the test compound for 48 hours. Compounds are tested at a single concentration, which is 10^-5 M for most compounds. The reported endpoint is percent growth (GI% or GIPRCNT), where numbers from 0 - 100% represent growth inhibition, and numbers from -100% - 0 represent cell death. For example, a value of 40 represents 60% growth inhibition. […]
Compounds without any hit were thinned out: in the full panel of roughly 83,000, 20% have a hit.
VALUE TYPE: growth (%)
One number for each entry, in %.

Some solved entries appear below for comparison.
OCCS; 96.2
O=S(=O)(O)c1ccc2cc(O)ccc2c1; 104
CCCCCCCCCCCCCCCCC(=O)O; 98.4
OCc1ccccc1F; 75.8
CCCC(=O)Oc1ccc2ccccc2c1; 101
COc1ccc2oc3c(ccc[n+]3C)c(=O)c2c1; 99.9
CCC(C)NC(=O)c1ccccc1C (centres undefined); 95.7
O=COCCCc1ccccc1; 99
Cc1ccc(S(=O)(=O)n2ccnc2)cc1; 95.5
COc1cc(C2c3cc4c(cc3C(OC(=O)C[n+]3ccccc3)C3COC(=O)C23)OCO4)cc(OC)c1OC (centres undefined); 12.7

Go through the items and report each one's growth.
1. CC(=O)Nc1cscc1NC(C)=O
2. CN(C)C(=S)N(C)C
3. COc1ccc(S(=O)(=O)c2ccc(F)cc2)cc1

Given back:
98.6
98.4
81.5

Asked: Find the recorded growth belonging to CC(C)(C)OC(=O)c1ccc(NCc2cc(O)ccc2O)cc1 and report it.
Given back: 24.3

* * *

Test system: NCI-H522 lung
PROCEDURE TEXT: NCI-60 one-dose screen, 48 h
CONDITION LABEL: 10 µM unless noted
Compounds without any hit were thinned out: in the full panel of roughly 83,000, 20% have a hit. Activity calls are given as the source filed them. The calls were made as follows: active = growth percent below 10; inactive = the rest.
Respond using exactly one of the listed classes: active, inactive

Reference set (5 entries):
CCNC1=CC(=O)c2ncccc2C1=O; active
C/C(=C\c1ccccc1)C(O)C(=O)c1nc2ccc([N+](=O)[O-])cc2[nH]c1=O (configuration not stated); inactive
CCCC(=O)Oc1ccc(CC)cc1; inactive
NC(=O)Cc1nc(O)cc(=O)[nH]1; inactive
O=C1c2ccccc2C(c2ccccc2)C1c1ccccc1 (configuration not stated); inactive

Asked: Each compound tested received a call. Report the one for CCCC(=O)Oc1ccc2ccccc2c1 .
Given back: inactive

Asked: Also check CCOCCC(=O)O
Given back: inactive

* * *

Please respond with reported growth for every item in the list.
Tested on: SNB-19 CNS
PROCEDURE TEXT: NCI-60 one-dose screen, 48 h (100 = growth as untreated, 0 = no growth, -100 = all killed)
CONDITION LABEL: 10 µM unless noted
Description: Growth inhibition of the SNB-19 human tumor cell line is measured as a screen for anti-cancer activity. Cells are grown in 96 well plates and exposed to the test compound for 48 hours. Compounds are tested at a single concentration, which is 10^-5 M for most compounds. The reported endpoint is percent growth (GI% or GIPRCNT), where numbers from 0 - 100% represent growth inhibition, and numbers from -100% - 0 represent cell death. For example, a value of 40 represents 60% growth inhibition. […]
This is part of a sample that, as a whole, favours compounds with a hit. Of some 83,000 tested, about 20% had one in any assay. Calls of active or inactive are those of the source. Rule for the calls: active = growth percent below 10; inactive = the rest.

Please state, for each entry, its recorded growth.
1. CCOC(=N)c1ccc(C(=N)OCC)cc1
2. COc1ccc(CCO)cc1

Given back:
["91.4% (inactive)", "100% (inactive)"]

Provide each entry's growth from the list below.
1. CC(C)(C)OC(=O)CC1(O)CCCCC1
2. CC(=O)/C(N=Nc1ccc(S(=O)(=O)c2ccc(N=N/C(C(C)=O)=C(/C)O)cc2)cc1)=C(\C)O
3. O=C(c1ccc(Cl)cc1)C1C(c2ccccc2)C1[N+](=O)[O-] (configuration not stated)
4. COCCCNC1=C(C#N)C(=O)NC(c2cccs2)S1 (configuration not stated)

Given back:
1: 106% (inactive); 2: 114% (inactive); 3: 97.1% (inactive); 4: 94.4% (inactive)

Asked: Item CC(=O)c1cc2ccccc2o1 with SNB-19 CNS - growth?
Given back: 108% (inactive)

* * *

System: HOP-62 NSCLC
PROCEDURE TEXT: NCI-60 one-dose screen, 48 h (100 = growth as untreated, 0 = no growth, -100 = all killed)
CONDITION LABEL: 10 µM unless noted
The panel holds about 83,000 compounds, 20% with a hit somewhere; the sample as a whole holds those more often.
VALUE TYPE: growth (%)
Numbers only, in %.

CN(C=O)c1ccccc1; 92.3
CCCCCCCCCCCCCCCCC(=O)O; 104
Clc1ccc2c(c1)N(C1CCCN(Cc3ccccc3)C1)c1ccccc1S2 (centres undefined); 82.1
COc1cc(C2c3cc4c(cc3C(OC(=O)C[n+]3ccccc3)C3COC(=O)C23)OCO4)cc(OC)c1OC (centres undefined); 19.3
O=C(N=C1C(=O)C2(CCCCC2)C2(N=C(c3ccccc3)OC2=O)C12CCCCC2)c1ccccc1 (centres undefined); 96.8

Look at each compound and report its growth.
1. CC1NC(C)c2ccc3ccccc3c2O1 (centres undefined)
2. OCc1ccccc1F
3. CSc1nc(N)c(N)c(N)n1
4. N=c1sc2ccccc2n1CC(=O)O
5. Cc1ccc(NC(=S)N/C=C(\c2ccccc2)S(=O)Cc2ccccc2)c(C)c1 (centres undefined)

Given back:
[108, 97.3, 92.6, 88.8, 95.8]

For the 2 compounds below, give their growth values.
1. COc1cc(Cl)ccc1C
2. CNc1ccc(O)cc1

Given back:
1. 99.5
2. 104

Each compound below has a reported value. Please supply its growth.
1. Nc1ccc2ccc(NS(=O)(=O)N3CCCCC3)cc2c1
2. c1ccc2c[n+](Cc3ccc4ccccc4n3)ccc2c1

Given back:
35.4
80.1

* * *

System: K-562 leukemia
PROCEDURE TEXT: NCI-60 one-dose screen, 48 h (100 = growth as untreated, 0 = no growth, -100 = all killed)
CONDITION LABEL: 10 µM unless noted
About 83,000 compounds went through this panel and 20% of them were active in at least one assay; those are over-represented in the sample as a whole.
Record form. Attribute: growth. Fill in for each entry.
One number for each entry, in %.

Worked cases, growth given:
CCNC1=CC(=O)c2ncccc2C1=O; 21.2
Clc1ccc2c(c1)N(C1CCCN(Cc3ccccc3)C1)c1ccccc1S2 (stereo unspecified); 18.5

Below is a list of compounds. For each, state its recorded growth.
1. NC(=O)Cc1nc(O)cc(=O)[nH]1
2. Cc1c(Cl)c(C)c(Cc2c(C)c(Cl)c(C)c(Cl)c2O)c(O)c1Cl
3. Cc1cc(=NO)cc(C)n1O
4. CCNCc1ccccc1
5. NNC(=O)Nc1ccccc1
6. O=C(N=C1C(=O)C2(CCCCC2)C2(N=C(c3ccccc3)OC2=O)C12CCCCC2)c1ccccc1 (stereo unspecified)
7. CCCC(=O)Oc1ccc2ccccc2c1

Given back:
[102, 20.1, 96.8, 96.3, 102, 54.4, 95.7]

Hello, I would appreciate it if you could give growth for each entry below.
1. Nc1ccccc1SC1CC(=O)N(c2ccc(I)cc2)C1=O (stereo unspecified)
2. O=C1c2ccccc2CN1c1ccccc1

Given back:
1. 82.9
2. 94.2

Quick batch: growth for everything below.
1. O=P(O)(O)OC1C(OP(=O)(O)O)C(OP(=O)(O)O)C(OP(=O)(O)O)C(OP(=O)(O)O)C1OP(=O)(O)O.[Cu+2] (stereo unspecified)
2. O=C(O)Cc1cc(=O)[nH]n(-c2ccccc2)c1=O
3. CCCCC/C(C)=N\NC(N)=S
4. NNc1ncnc2cccc(Cl)c12
5. CCOC(=O)c1ccncc1
6. Cc1c(O)nc(N)[nH]c1=O

Given back:
1: 94.7; 2: 100; 3: 58.7; 4: 99.4; 5: 99.3; 6: 118

Hi there! I need growth for each item below, if you can.
1. CC(=O)/C(N=Nc1ccc(S(=O)(=O)c2ccc(N=N/C(C(C)=O)=C(/C)O)cc2)cc1)=C(\C)O
2. CCC(C)NC(=O)c1ccccc1C (stereo unspecified)
3. O=[N+]([O-])c1ccc(N2CCN=N2)cc1
4. O=C(O)COc1ccccc1F
5. Cc1ccc([N+](=O)[O-])cc1Br
6. CC(=O)Oc1cc(C)c(OC(C)=O)c(C)c1C
7. Cc1cc(-c2ccc(N=Nc3c(C)nn(-c4ccc(S(=O)(=O)O)cc4)c3O)c(C)c2)ccc1N=Nc1ccc(O)c(C(=O)O)c1
8. COc1ccc(/C=N/NC(N)=S)cc1

Given back:
1. 111
2. 129
3. 63.6
4. 92.5
5. 86.3
6. 90.9
7. 104
8. 106

Asked: Give K-562 leukemia growth for CCN(CC)C(CC(=O)c1ccccc1)C(=O)c1ccccc1 (stereo unspecified)
Given back: 38.2
